Molecular target: T1, human IL-23R endogenously expressed on DB cells (CRL-2289) (human, UniProt Q5VWK5 24-629)
T1 sequence (looked up): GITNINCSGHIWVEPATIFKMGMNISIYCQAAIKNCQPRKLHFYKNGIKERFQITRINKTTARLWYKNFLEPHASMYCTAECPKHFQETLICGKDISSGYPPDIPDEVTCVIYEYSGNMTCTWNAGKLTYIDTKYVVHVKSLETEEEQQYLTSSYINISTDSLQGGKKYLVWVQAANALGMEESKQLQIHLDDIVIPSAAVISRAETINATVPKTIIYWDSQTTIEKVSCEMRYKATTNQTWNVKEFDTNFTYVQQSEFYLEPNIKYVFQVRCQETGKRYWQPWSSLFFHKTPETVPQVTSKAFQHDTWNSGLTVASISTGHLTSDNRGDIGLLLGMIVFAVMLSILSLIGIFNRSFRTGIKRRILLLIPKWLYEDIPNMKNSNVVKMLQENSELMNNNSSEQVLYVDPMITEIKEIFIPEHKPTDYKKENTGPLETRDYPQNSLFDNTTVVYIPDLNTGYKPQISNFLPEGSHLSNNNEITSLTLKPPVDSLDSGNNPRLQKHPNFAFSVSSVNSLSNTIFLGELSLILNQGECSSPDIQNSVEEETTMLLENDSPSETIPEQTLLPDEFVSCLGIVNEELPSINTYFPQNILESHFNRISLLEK
Assay: cell-based or functional assay
*1 amine or outer side, *2 acyl side, *3 side chain or, on linkers, in order; H or OH if unused. Bridges are numbered along the chain shown (N, C = ends). Where no end group is shown, it is not given here. [ ]: non-standard residue; d: D form. 4‑Aminomethyl‑phenylacetyl = 4-aminomethyl-phenylacetyl unit, its amine closes the lactam, O=C(Cc1ccc(CN[*:1])cc1)[*:2]; 1,3‑dibromopropan‑2‑one = linker (CAS 816-39-7) joining two Cys as 1,3-dithio-propan-2-one bridge -SCH2C(=O)CH2S-; 2Nal = N[C@@H](Cc1ccc2ccccc2c1)C(=O)O; AEF = NCCOc1ccc(C[C@H](N)C(=O)O)cc1; 3Pal = N[C@@H](Cc1cccnc1)C(=O)O; αMeL = CC(C)C[C@](C)(N)C(=O)O; CH2COCH2 = O=C(C[*:1])C[*:2]; 3Amb = NCc1cccc(C(=O)O)c1; Orn = NCCC[C@H](N)C(=O)O; Dab = NCC[C@H](N)C(=O)O
Measurement Name: IC50 (pSTAT3)

{"Binder": "Ac-ESCWQCWWLK-NH2 (lactam 1-10; linker 3-6 via 1,3‑dibromopropan‑2‑one) [Compound 12]", "Measurement Name": "IC50 (pSTAT3)", "Assay Result": "> 1 µM"}

Value of measured IC50 (pSTAT3) for the entry [3Amb]SCWQC[AEF][2Nal][αMeL]ER[3Pal]-NH2 (lactam (positions not given here); linker 3-6 via CH2COCH2; not fully specified (bridges); printed as [(3-Aminomethyl)benzoyl](1c)*SC(2a)WQC(2a)[Y(2-aminoethoxy)][2-Nal][2-Me-Leu]E(1c)R[3-(3-Pyridyl)-Ala]-[NH2]) [Compound 78] : 0.132 nM

Value of measured IC50 (pSTAT3) for the entry Ac-DESCAQCWWLKR-NH2 (lactam 2-11; linker 4-7 via 1,3‑dibromopropan‑2‑one) [Compound 13] : > 1 µM

Value of measured IC50 (pSTAT3) for the entry H-ECWLCYYRNCNCM-NH2 (linker 5-10, 2-12 via 1,3‑dibromopropan‑2‑one, Peptide of Heinis et al., 2020, synthesised and tested by the inventors) [I4 (isomer 3)] : > 1 µM

Value of measured IC50 (pSTAT3) for the entry [4‑Aminomethyl‑phenylacetyl]SCWQC[AEF][2Nal][αMeL]E[dR]-NH2 (lactam (positions not given here); linker 3-6 via CH2COCH2; not fully specified (bridges); printed as [4-Aminomethyl-phenylacetyl](1c)*SC(2a)WQC(2a)[Y(2-aminoethoxy)][2-Nal][2-Me-Leu]E(1c)[{d}R]-[NH2]) [Compound 80] : 10.5 nM

Value of measured IC50 (pSTAT3) for the entry [4‑Aminomethyl‑phenylacetyl]SEWQ[Dab][AEF][2Nal][αMeL]E-{NH‑3‑aminopropanoyl} (lactam N-10, 3-6) [Compound 137] : 24.1 nM

Value of measured IC50 (pSTAT3) for the entry [3Amb]S[Orn]WQE[AEF][2Nal][αMeL]ER-NH2 (lactam (positions not given here); lactam 3-6; not fully specified (bridges); printed as [(3-Aminomethyl)benzoyl](1c)*S[Orn](2c)WQE(2c)[Y(2-aminoethoxy)][2-Nal][2-Me-Leu]E(1c)R-[NH2]) [Compound 68] : 63.9 nM
